# Target: HNF-4α (Rattus norvegicus, UniProt P22449)
# Sequence (P22449 1-464 isoform P22449-2): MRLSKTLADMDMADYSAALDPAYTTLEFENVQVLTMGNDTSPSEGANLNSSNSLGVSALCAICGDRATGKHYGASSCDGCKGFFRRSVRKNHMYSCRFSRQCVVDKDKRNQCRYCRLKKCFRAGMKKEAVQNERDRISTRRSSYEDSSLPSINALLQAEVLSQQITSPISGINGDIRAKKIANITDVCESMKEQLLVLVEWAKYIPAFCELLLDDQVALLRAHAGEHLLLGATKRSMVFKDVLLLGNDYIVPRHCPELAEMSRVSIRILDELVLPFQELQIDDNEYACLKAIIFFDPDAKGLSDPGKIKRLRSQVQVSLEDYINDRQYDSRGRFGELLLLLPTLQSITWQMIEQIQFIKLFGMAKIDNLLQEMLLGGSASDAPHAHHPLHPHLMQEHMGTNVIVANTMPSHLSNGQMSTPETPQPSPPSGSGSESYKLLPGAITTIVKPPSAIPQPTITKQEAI
# Assay comment: Transfection assay: COS-7 cells cotransfected with (C3P)3-TK-CAT reporter and pSG5-HNF-4α
# Type: cell-based
# Parameters: expressed in transfected cells; host or cells: COS-7
# Stated conditions: free fatty acids added to culture medium of COS-7 cells (FIG. 4a)
Metric name: effect on HNF-4α dependent transcription (CAT activity)

- Smiles str: "CCCCCCCCCCCCCCCCCC(=O)O"
  Target: "HNF-4α (Rattus norvegicus, UniProt P22449)"
  Reported measurement: "suppressive"
- Smiles str: "CC/C=C\\C/C=C\\C/C=C\\C/C=C\\C/C=C\\CCCC(=O)O"
  Target: "HNF-4α (Rattus norvegicus, UniProt P22449)"
  Reported measurement: "suppressive"
- Smiles str: "CC/C=C\\C/C=C\\C/C=C\\CCCCCCCC(=O)O"
  Target: "HNF-4α (Rattus norvegicus, UniProt P22449)"
  Reported measurement: "suppressive"
